TEST_METHOD_NOTES: M. tuberculosis growth inhibition, HTS (AID 449762);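 also: bacterial growth assessed after seven days of incubation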
EXPERIMENTAL_CONDITIONS: M. tuberculosis H37Rv growth inhibition, 7H9 media; at 25 µM; stronger effect = higher value
Out of some 330,000 compounds screened, about 1,900 (0.58%) were called active. Another 4% or so got no clear call; they are omitted. These entries were drawn from the full list. Potency and affinity values are given separately.
Entries and their inhibition

# example entries with known answers
COMPOUND | MEAS_VALUE
S=c1nccc(-c2ccc3c(c2)CCO3)[nH]1 | 3.97% (inactive)
CCC1CCCCN1C(=O)c1ccc2c(c1)C(=O)N(c1ccc(C)cc1)C2=O (centres undefined) | 7.37% (inactive)
COc1ccc(OC)c(NC(=O)c2cccnc2Sc2cc(C)ccc2C)c1 | 8.29% (inactive)
CC(OC(=O)/C=C/c1ccc2ccccc2n1)C(=O)Nc1ccc(S(N)(=O)=O)cc1 (centres undefined) | 11.9% (inactive)
CCCN(CCC)CCCNC(=O)c1cn(CC)c2ccc(S(=O)(=O)N3CCOCC3)cc2c1=O | 3.73% (inactive)
COC(=O)[C@H](CC(C)C)NC(=O)N1CCN(c2cccc(C(F)(F)F)c2)CC1 | 1.6% (inactive)
COc1cccc(CN(C)C(=O)c2cc(S(=O)(=O)NCc3ccccc3)ccc2C)c1OC | -0.57% (inactive)
CCOC(=O)c1cn(CC)c2cc(Cl)c([N+](=O)[O-])cc2c1=O | 9.8% (inactive)

Consider the compound O=C(NCC(c1ccco1)N1CCc2ccccc21)C(=O)Nc1ccccc1F (centres undefined) and give its measured inhibition.
8.05% (inactive)

Consider the compound COc1ccc(C(=O)Nc2cnccn2)cc1[N+](=O)[O-] and give its measured inhibition.
-6.82% (inactive)

Consider the compound Cc1ccc(C(=O)Nc2cccc(C(F)(F)F)c2)cc1NC(=O)c1nccn1C and give its measured inhibition.
-2.57% (inactive)

The values you see were collected from PubChem BioAssay AID449762.
